Biological target: Human Factor P (human, UniProt P27918 29-469)
Sequence (P27918 29-469 limits assumed): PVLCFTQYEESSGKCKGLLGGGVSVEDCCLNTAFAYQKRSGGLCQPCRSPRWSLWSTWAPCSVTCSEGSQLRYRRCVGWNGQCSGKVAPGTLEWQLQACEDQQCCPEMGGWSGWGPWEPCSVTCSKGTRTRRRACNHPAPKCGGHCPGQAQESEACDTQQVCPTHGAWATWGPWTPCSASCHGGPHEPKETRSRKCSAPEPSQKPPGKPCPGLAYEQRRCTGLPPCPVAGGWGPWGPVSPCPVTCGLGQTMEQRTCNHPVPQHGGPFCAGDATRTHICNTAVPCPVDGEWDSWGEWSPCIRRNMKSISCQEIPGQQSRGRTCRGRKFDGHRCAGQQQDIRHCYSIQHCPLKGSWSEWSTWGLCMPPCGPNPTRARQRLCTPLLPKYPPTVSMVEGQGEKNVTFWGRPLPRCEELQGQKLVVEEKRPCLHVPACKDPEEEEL
Experiment: cell-based or functional assay
PROPERTY MEASURED: MAC Deposition, 20% Serum EC50 (nM)
The response must be a number in nM with no trailing unit.

{"BINDER": "NVS806 (Fab, V domains shown) VH: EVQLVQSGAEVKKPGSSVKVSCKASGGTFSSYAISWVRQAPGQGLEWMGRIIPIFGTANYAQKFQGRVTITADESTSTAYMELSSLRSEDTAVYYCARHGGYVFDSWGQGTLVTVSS VL: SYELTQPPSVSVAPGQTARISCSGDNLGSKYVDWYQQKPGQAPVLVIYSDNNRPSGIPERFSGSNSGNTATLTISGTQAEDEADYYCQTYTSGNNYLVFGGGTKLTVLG", "NUMERIC RESULT": 5.74}
{"BINDER": "NVS962-S31A (Fab, V domains shown, NVS962 with heavy chain serine 31 replaced with alanine) VH: EVQLVQSGAEVKKPGSSVKVSCKASGGTFNAYAISWVRQAPGQGLEWMGRIIPIFGTANYAQKFQGRVTITADESTSTAYMELSSLRSEDTAVYYCARHGGYSFDSWGQGTLVTVSS VL: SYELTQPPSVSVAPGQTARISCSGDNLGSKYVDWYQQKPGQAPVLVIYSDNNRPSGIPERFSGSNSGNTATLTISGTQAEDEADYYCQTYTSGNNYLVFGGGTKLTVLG", "NUMERIC RESULT": 9.96}
{"BINDER": "NVS808 (Fab, V domains shown) VH: EVQLVQSGAEVKKPGSSVKVSCKASGGTFSSYAISWVRQAPGQGLEWMGRIIPIFGTANYAQKFQGRVTITADESTSTAYMELSSLRSEDTAVYYCARHGGYIFDSWGQGTLVTVSS VL: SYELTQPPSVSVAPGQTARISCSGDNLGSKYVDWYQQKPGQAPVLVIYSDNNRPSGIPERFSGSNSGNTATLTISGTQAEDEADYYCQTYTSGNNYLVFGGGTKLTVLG", "NUMERIC RESULT": 6.51}
{"BINDER": "NVS962-S (Fab, V domains shown, NVS962 with heavy chain N30 replaced with serine) VH: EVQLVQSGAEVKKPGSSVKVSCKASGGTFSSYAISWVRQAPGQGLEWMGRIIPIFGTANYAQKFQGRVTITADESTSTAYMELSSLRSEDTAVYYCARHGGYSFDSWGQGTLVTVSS VL: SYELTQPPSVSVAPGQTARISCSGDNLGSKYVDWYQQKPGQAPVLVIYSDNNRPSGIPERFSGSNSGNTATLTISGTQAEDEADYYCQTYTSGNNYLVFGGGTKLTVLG", "NUMERIC RESULT": 6.53}

Please turn your attention to the following entry.
# query: MAC Deposition, 20% Serum EC50 of entry NVS962-T (Fab, V domains shown, NVS962 with heavy chain N30 replaced with threonine; also called NSV962-T) VH: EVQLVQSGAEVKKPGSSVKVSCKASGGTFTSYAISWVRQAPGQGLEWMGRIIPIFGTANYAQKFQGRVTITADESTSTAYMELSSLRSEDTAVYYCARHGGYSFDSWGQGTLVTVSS VL: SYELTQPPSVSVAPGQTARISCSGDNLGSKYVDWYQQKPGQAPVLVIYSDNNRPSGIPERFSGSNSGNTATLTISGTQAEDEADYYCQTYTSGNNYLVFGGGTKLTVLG
6.61
